Just for reference, paper PMC9077138 is where these values come from.

compounds and their reported melting point
# number only, unit °C dropped from output

Observe how each entry below is paired with its result.
chemical.smiles | units.symbol | meas.value
COc1ccc2cc(C(C)=NNC(N)=S)c(=O)oc2c1 | °C | 213
CNC(=S)NN=C(C)c1cc2ccc(OC)cc2oc1=O | °C | 117
CCNC(=S)NN=C(C)c1cc2ccc(OC)cc2oc1=O | °C | 174

Okay, next one:
melting point lookup needed for COc1ccc2cc(/C(C)=N\NC(=S)Nc3ccccc3)c(=O)oc2c1 , thanks. 186

---

compounds and their reported number of binding sites n
test.target: BSA (Bos taurus, UniProt P02769)
Construct: purchased HiMedia (Mumbai, India)
Sequence (P02769 25-607): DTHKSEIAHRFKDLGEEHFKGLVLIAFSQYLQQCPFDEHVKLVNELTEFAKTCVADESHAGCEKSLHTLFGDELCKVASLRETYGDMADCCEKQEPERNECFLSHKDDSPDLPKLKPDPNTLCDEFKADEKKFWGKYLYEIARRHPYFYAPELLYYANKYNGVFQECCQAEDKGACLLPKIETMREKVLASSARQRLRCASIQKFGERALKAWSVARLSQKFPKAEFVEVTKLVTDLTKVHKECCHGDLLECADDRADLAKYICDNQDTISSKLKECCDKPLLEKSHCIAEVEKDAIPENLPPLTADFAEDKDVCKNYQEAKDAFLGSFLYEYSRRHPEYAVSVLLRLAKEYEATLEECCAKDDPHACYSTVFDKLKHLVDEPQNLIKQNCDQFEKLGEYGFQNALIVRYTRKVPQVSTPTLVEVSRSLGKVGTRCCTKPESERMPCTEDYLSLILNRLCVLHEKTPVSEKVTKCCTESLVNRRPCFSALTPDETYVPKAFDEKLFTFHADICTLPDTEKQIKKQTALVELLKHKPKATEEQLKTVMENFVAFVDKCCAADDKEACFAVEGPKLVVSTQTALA
assay.details: BSA tryptophan fluorescence quenching
Assay type: binding, bovine
test.conditions: BSA

compound | number of binding sites n
COc1ccc2[c]3c(c(=O)oc2c1)C(C)=[N+]1N=C(Nc2ccccc2)[S][Ru-4]31([C]#[O+])([P+](c1ccccc1)(c1ccccc1)c1ccccc1)[P+](c1ccccc1)(c1ccccc1)c1ccccc1 [Complex 4, [Ru(7MAC-ptsc)(CO)(PPh3)2]] | 1.0486 ± 0.019
COc1ccc2[c]3c(c(=O)oc2c1)C(C)=[N+]1N=C(N)[S][Ru-4]31([C]#[O+])([P+](c1ccccc1)(c1ccccc1)c1ccccc1)[P+](c1ccccc1)(c1ccccc1)c1ccccc1 [Complex 1, [Ru(7MAC-tsc)(CO)(PPh3)2]] | 1.0408 ± 0.030
CCNC1=N[N+]2=C(C)c3[c](c4ccc(OC)cc4oc3=O)[Ru-4]2([C]#[O+])([P+](c2ccccc2)(c2ccccc2)c2ccccc2)([P+](c2ccccc2)(c2ccccc2)c2ccccc2)[S]1 [Complex 3, [Ru(7MAC-etsc)(CO)(PPh3)2]] | 1.266 ± 0.0290

BSA (Bos taurus, UniProt P02769) / number of binding sites n / CNC1=N[N+]2=C(C)c3[c](c4ccc(OC)cc4oc3=O)[Ru-4]2([C]#[O+])([P+](c2ccccc2)(c2ccccc2)c2ccccc2)([P+](c2ccccc2)(c2ccccc2)c2ccccc2)[S]1 [Complex 2, [Ru(7MAC-mtsc)(CO)(PPh3)2]] : value? 1.0478 ± 0.031

---

test.target: BSA (Bos taurus)
Construct: purchased HiMedia (Mumbai, India)
assay.details: Three-dimensional fluorescence spectra of BSA
Format: binding, bovine
test.conditions: BSA 10 μM + compound 10 μM, pH 7.4, 298 K
compounds and their reported Fluorescence peaks Peak position λex/λem

Observe how each entry below is paired with its result.
compound | Fluorescence peaks Peak position λex/λem
CCNC1=N[N+]2=C(C)c3[c](c4ccc(OC)cc4oc3=O)[Ru-4]2([C]#[O+])([P+](c2ccccc2)(c2ccccc2)c2ccccc2)([P+](c2ccccc2)(c2ccccc2)c2ccccc2)[S]1 [Complex 3, [Ru(7MAC-etsc)(CO)(PPh3)2]] | 280/339
CNC1=N[N+]2=C(C)c3[c](c4ccc(OC)cc4oc3=O)[Ru-4]2([C]#[O+])([P+](c2ccccc2)(c2ccccc2)c2ccccc2)([P+](c2ccccc2)(c2ccccc2)c2ccccc2)[S]1 [Complex 2, [Ru(7MAC-mtsc)(CO)(PPh3)2]] | 280/339
COc1ccc2[c]3c(c(=O)oc2c1)C(C)=[N+]1N=C(N)[S][Ru-4]31([C]#[O+])([P+](c1ccccc1)(c1ccccc1)c1ccccc1)[P+](c1ccccc1)(c1ccccc1)c1ccccc1 [Complex 1, [Ru(7MAC-tsc)(CO)(PPh3)2]] | 280/338

BSA (Bos taurus) / Fluorescence peaks Peak position λex/λem / COc1ccc2[c]3c(c(=O)oc2c1)C(C)=[N+]1N=C(Nc2ccccc2)[S][Ru-4]31([C]#[O+])([P+](c1ccccc1)(c1ccccc1)c1ccccc1)[P+](c1ccccc1)(c1ccccc1)c1ccccc1 [Complex 4, [Ru(7MAC-ptsc)(CO)(PPh3)2]] : value? 280/340

---

test.target: HSA (Homo sapiens, UniProt P02768)
Construct: purchased HiMedia (Mumbai, India)
Sequence (P02768 25-609): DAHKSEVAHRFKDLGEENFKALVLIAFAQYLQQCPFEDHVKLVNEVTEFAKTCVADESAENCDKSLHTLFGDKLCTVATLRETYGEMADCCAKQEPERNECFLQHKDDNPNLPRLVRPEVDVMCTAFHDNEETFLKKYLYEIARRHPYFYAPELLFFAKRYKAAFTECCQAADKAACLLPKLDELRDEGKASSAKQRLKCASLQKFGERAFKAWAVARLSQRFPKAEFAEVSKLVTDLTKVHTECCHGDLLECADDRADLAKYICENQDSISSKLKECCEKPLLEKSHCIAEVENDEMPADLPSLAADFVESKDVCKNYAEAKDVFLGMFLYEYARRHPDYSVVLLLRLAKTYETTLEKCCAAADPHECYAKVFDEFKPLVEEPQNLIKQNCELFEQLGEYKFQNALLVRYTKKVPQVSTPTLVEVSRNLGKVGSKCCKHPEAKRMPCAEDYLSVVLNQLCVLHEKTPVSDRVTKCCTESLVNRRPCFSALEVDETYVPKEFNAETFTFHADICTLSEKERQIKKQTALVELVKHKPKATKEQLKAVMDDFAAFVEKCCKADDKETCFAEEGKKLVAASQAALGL
assay.details: HSA tryptophan fluorescence quenching
Assay type: binding
test.conditions: HSA
compounds and their reported number of binding sites n

compound | number of binding sites n
COc1ccc2[c]3c(c(=O)oc2c1)C(C)=[N+]1N=C(Nc2ccccc2)[S][Ru-4]31([C]#[O+])([P+](c1ccccc1)(c1ccccc1)c1ccccc1)[P+](c1ccccc1)(c1ccccc1)c1ccccc1 [Complex 4, [Ru(7MAC-ptsc)(CO)(PPh3)2]] | 0.9118 ± 0.025
COc1ccc2[c]3c(c(=O)oc2c1)C(C)=[N+]1N=C(N)[S][Ru-4]31([C]#[O+])([P+](c1ccccc1)(c1ccccc1)c1ccccc1)[P+](c1ccccc1)(c1ccccc1)c1ccccc1 [Complex 1, [Ru(7MAC-tsc)(CO)(PPh3)2]] | 1.1329 ± 0.018
CNC1=N[N+]2=C(C)c3[c](c4ccc(OC)cc4oc3=O)[Ru-4]2([C]#[O+])([P+](c2ccccc2)(c2ccccc2)c2ccccc2)([P+](c2ccccc2)(c2ccccc2)c2ccccc2)[S]1 [Complex 2, [Ru(7MAC-mtsc)(CO)(PPh3)2]] | 1.1859 ± 0.004

Okay, next one:
HSA (Homo sapiens, UniProt P02768) / number of binding sites n / CCNC1=N[N+]2=C(C)c3[c](c4ccc(OC)cc4oc3=O)[Ru-4]2([C]#[O+])([P+](c2ccccc2)(c2ccccc2)c2ccccc2)([P+](c2ccccc2)(c2ccccc2)c2ccccc2)[S]1 [Complex 3, [Ru(7MAC-etsc)(CO)(PPh3)2]] : value? 1.2027 ± 0.030

---

test.target: HSA (Homo sapiens, UniProt P02768)
Construct: purchased HiMedia (Mumbai, India)
assay.details: Three-dimensional fluorescence spectra of HSA
Assay type: binding
test.conditions: HSA 10 μM + compound 10 μM, pH 7.4, 298 K
property.label: Fluorescence peaks Stokes Δλ

Observe how each entry below is paired with its result.
molecule | Fluorescence peaks Stokes Δλ
CNC1=N[N+]2=C(C)c3[c](c4ccc(OC)cc4oc3=O)[Ru-4]2([C]#[O+])([P+](c2ccccc2)(c2ccccc2)c2ccccc2)([P+](c2ccccc2)(c2ccccc2)c2ccccc2)[S]1 [Complex 2, [Ru(7MAC-mtsc)(CO)(PPh3)2]] | 51 nm
COc1ccc2[c]3c(c(=O)oc2c1)C(C)=[N+]1N=C(N)[S][Ru-4]31([C]#[O+])([P+](c1ccccc1)(c1ccccc1)c1ccccc1)[P+](c1ccccc1)(c1ccccc1)c1ccccc1 [Complex 1, [Ru(7MAC-tsc)(CO)(PPh3)2]] | 55 nm
CCNC1=N[N+]2=C(C)c3[c](c4ccc(OC)cc4oc3=O)[Ru-4]2([C]#[O+])([P+](c2ccccc2)(c2ccccc2)c2ccccc2)([P+](c2ccccc2)(c2ccccc2)c2ccccc2)[S]1 [Complex 3, [Ru(7MAC-etsc)(CO)(PPh3)2]] | 57 nm

Okay, next one:
Fluorescence peaks Stokes Δλ lookup needed for COc1ccc2[c]3c(c(=O)oc2c1)C(C)=[N+]1N=C(Nc2ccccc2)[S][Ru-4]31([C]#[O+])([P+](c1ccccc1)(c1ccccc1)c1ccccc1)[P+](c1ccccc1)(c1ccccc1)c1ccccc1 [Complex 4, [Ru(7MAC-ptsc)(CO)(PPh3)2]] , thanks. 52 nm

---

compounds and their reported quenching of BSA fluorescence intensity at 346 nm
test.target: BSA (Bos taurus)
Construct: purchased HiMedia (Mumbai, India)
assay.details: BSA tryptophan fluorescence quenching
Assay type: binding, bovine
test.conditions: compounds 10–100 μM, BSA 10 μM
Quote the value and follow it with the unit of measurement.

compound | meas.value
COc1ccc2[c]3c(c(=O)oc2c1)C(C)=[N+]1N=C(Nc2ccccc2)[S][Ru-4]31([C]#[O+])([P+](c1ccccc1)(c1ccccc1)c1ccccc1)[P+](c1ccccc1)(c1ccccc1)c1ccccc1 [Complex 4, [Ru(7MAC-ptsc)(CO)(PPh3)2]] | 58.68%

quenching of BSA fluorescence intensity at 346 nm lookup needed for CCNC1=N[N+]2=C(C)c3[c](c4ccc(OC)cc4oc3=O)[Ru-4]2([C]#[O+])([P+](c2ccccc2)(c2ccccc2)c2ccccc2)([P+](c2ccccc2)(c2ccccc2)c2ccccc2)[S]1 [Complex 3, [Ru(7MAC-etsc)(CO)(PPh3)2]] , thanks. 63.19%

quenching of BSA fluorescence intensity at 346 nm lookup needed for CNC1=N[N+]2=C(C)c3[c](c4ccc(OC)cc4oc3=O)[Ru-4]2([C]#[O+])([P+](c2ccccc2)(c2ccccc2)c2ccccc2)([P+](c2ccccc2)(c2ccccc2)c2ccccc2)[S]1 [Complex 2, [Ru(7MAC-mtsc)(CO)(PPh3)2]] , thanks. 71.15%

quenching of BSA fluorescence intensity at 346 nm lookup needed for COc1ccc2[c]3c(c(=O)oc2c1)C(C)=[N+]1N=C(N)[S][Ru-4]31([C]#[O+])([P+](c1ccccc1)(c1ccccc1)c1ccccc1)[P+](c1ccccc1)(c1ccccc1)c1ccccc1 [Complex 1, [Ru(7MAC-tsc)(CO)(PPh3)2]] , thanks. 62.61%

---

Test system: C. albicans
assay.details: In vitro antifungal assay (zone of inhibition, MIC)
Type: cell-based, Candida albicans
test.conditions: C. albicans
property.label: Minimum inhibitory concentration (MIC); head: IC50 VALUES (µM)
# number only, unit µM dropped from output

Observe how each entry below is paired with its result.
compound | meas.value
CNC1=N[N+]2=C(C)c3[c](c4ccc(OC)cc4oc3=O)[Ru-4]2([C]#[O+])([P+](c2ccccc2)(c2ccccc2)c2ccccc2)([P+](c2ccccc2)(c2ccccc2)c2ccccc2)[S]1 [Complex 2, [Ru(7MAC-mtsc)(CO)(PPh3)2]] | 13.59
CCNC1=N[N+]2=C(C)c3[c](c4ccc(OC)cc4oc3=O)[Ru-4]2([C]#[O+])([P+](c2ccccc2)(c2ccccc2)c2ccccc2)([P+](c2ccccc2)(c2ccccc2)c2ccccc2)[S]1 [Complex 3, [Ru(7MAC-etsc)(CO)(PPh3)2]] | 13.24

Minimum inhibitory concentration (MIC); head: IC50 VALUES lookup needed for COc1ccc2[c]3c(c(=O)oc2c1)C(C)=[N+]1N=C(Nc2ccccc2)[S][Ru-4]31([C]#[O+])([P+](c1ccccc1)(c1ccccc1)c1ccccc1)[P+](c1ccccc1)(c1ccccc1)c1ccccc1 [Complex 4, [Ru(7MAC-ptsc)(CO)(PPh3)2]] , thanks. 14.65
